Numbers sourced from ChEMBL document CHEMBL1156013.

- study.system: Botulinum neurotoxin type A (Clostridium botulinum)
- Sequence (P0DPI0 2-448 limits assumed): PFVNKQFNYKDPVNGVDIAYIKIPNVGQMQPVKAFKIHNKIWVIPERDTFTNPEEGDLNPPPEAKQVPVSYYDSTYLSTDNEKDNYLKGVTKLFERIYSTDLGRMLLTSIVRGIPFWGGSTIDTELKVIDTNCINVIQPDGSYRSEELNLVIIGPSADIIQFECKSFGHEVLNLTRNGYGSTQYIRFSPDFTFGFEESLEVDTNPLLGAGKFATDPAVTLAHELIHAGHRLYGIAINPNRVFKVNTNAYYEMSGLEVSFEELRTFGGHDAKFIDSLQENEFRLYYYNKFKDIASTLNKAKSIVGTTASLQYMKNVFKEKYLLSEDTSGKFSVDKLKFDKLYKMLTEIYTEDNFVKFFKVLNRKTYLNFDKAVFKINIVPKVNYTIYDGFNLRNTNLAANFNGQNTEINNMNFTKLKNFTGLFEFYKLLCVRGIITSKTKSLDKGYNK
- test.summary: Inhibition of Clostridium botulinum neurotoxin A light chain by HPLC-based assay
Consider the following molecules; for each one, report its pKi.
# reply with the number alone; pKi is -log10 of concentration in mol/L

Form field pKi, entry N=C(N)c1ccc2cc(-c3ccc(Oc4ccc(/C(N)=N/CCCNc5ccnc6cc(Cl)ccc56)cc4)cc3)[nH]c2c1 : 6.22

Form field pKi, entry N=C(N)c1ccc(Oc2ccc(-c3cc4ccc(/C(N)=N/CCCNc5ccnc6cc(Cl)ccc56)cc4[nH]3)cc2)cc1 : 6.22

Form field pKi, entry N=C(N)c1ccc(Oc2ccc(-c3cc4ccc(C(=N)N)cc4[nH]3)cc2)cc1 : 5.00
